Data origin, for the record: the supplement of paper PMC6757056

B1: library; a variant is named by its letters at N, in order (parent)
chain: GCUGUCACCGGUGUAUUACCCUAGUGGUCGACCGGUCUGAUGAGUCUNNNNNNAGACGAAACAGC

# Variants of: B1
# MEASUREMENT_PROTOCOL: normalized RNA/DNA level without ligand (relative to sTRSVctl = 100) (log10 (% of sTRSVctl)); ligand: hypoxanthine (xanthine aptamer); higher = less ribozyme self-cleavage, higher mRNA level
# CONDITION_SET: HEK293T, reporter: mCherry (pCS4076), ligand present: no
TEST_READOUT: normalized RNA/DNA level without ligand (log10)

Known results for variants:
VARIANT_STRING: GUUCCU
RECORDED_RESULT: 1.98

VARIANT_STRING: CGAUGG
RECORDED_RESULT: 1.42

VARIANT_STRING: GCUGUA
RECORDED_RESULT: 1.9

VARIANT_STRING: UGUGAA
RECORDED_RESULT: 1.76

VARIANT_STRING: CAGCAU
RECORDED_RESULT: 1.71

Hi! Can you tell me normalized RNA/DNA level without ligand (log10) for each of these variants?
1. UCUCCA
2. AGGCGA
3. GUACAU
4. ACCGGU
5. UGAGUU
6. GUCAAU
7. CCCGAA
8. CAUUAU

1. 1.77
2. 1.56
3. 1.77
4. 1.84
5. 1.85
6. 1.8
7. 1.76
8. 1.8

Hi! Can you tell me normalized RNA/DNA level without ligand (log10) for each of these variants?
1. UACACC
2. UAAACG
3. CCCUAA

[1.9, 1.71, 1.91]

Hi! Can you tell me normalized RNA/DNA level without ligand (log10) for each of these variants?
1. UAAGCA
2. UACUAC
3. UAGCCA

[1.83, 1.93, 1.91]

Hi! Can you tell me normalized RNA/DNA level without ligand (log10) for each of these variants?
1. GUAUGG
2. UGAACU
3. AACCGG
4. CUCAGU
5. CGCUAU
6. ACCUUU
7. AUUAAU
8. GCUACU

1: 1.33; 2: 1.89; 3: 1.43; 4: 1.89; 5: 1.78; 6: 1.89; 7: 1.77; 8: 1.89

Hi! Can you tell me normalized RNA/DNA level without ligand (log10) for each of these variants?
1. CUGAGG
2. GUGGAC
3. CUUGCA
4. UGGGAG
5. CAGUGU
6. CCAUCA
7. AAGGGU
8. UCUUGU

1. 1.58
2. 1.58
3. 1.87
4. 1.55
5. 1.87
6. 2.01
7. 1.54
8. 1.67
